# Test system: Escherichia coli TOP10
# Method summary: shrunken log2 fold change of peptide-encoding DNA abundance (4.5 h post-induction vs induction); higher = less antimicrobial activity (less host growth inhibition)
# Recorded conditions: time post-induction: 4.5 h; library: site-saturation at positions 5, 18, 19, 20
Please use True whenever shrunken log2 fold change is not below 0.02, and False whenever it is.

Input sequence	Assigned label
RRIRFRPPRLPRPRPRPTSFPRP	True
RRIRMRPPRLPRPRPRPAMNPRP	False
RRIRCRPPRLPRPRPRPKFWPRP	True
RRIRDRPPRLPRPRPRPNIFPRP	False
RRIRLRPPRLPRPRPRPKLMPRP	False
RRIRARPPRLPRPRPRPEWFPRP	True
RRIRNRPPRLPRPRPRPFGWPRP	True
RRIRVRPPRLPRPRPRPFTAPRP	False
RRIRTRPPRLPRPRPRPAKDPRP	False
RRIRPRPPRLPRPRPRPQFIPRP	False
RRIRMRPPRLPRPRPRPSRWPRP	True
RRIRERPPRLPRPRPRPQWAPRP	False
RRIRRRPPRLPRPRPRPFPLPRP	True
RRIRMRPPRLPRPRPRPDGLPRP	True
RRIRTRPPRLPRPRPRPGYTPRP	True
RRIRFRPPRLPRPRPRPKTWPRP	True
RRIRLRPPRLPRPRPRPYMLPRP	False
RRIRPRPPRLPRPRPRPNYHPRP	False
RRIRIRPPRLPRPRPRPSWMPRP	False
RRIRERPPRLPRPRPRPRPHPRP	True
RRIRMRPPRLPRPRPRPNQHPRP	False
RRIRMRPPRLPRPRPRPAFWPRP	True
RRIRSRPPRLPRPRPRPGNQPRP	False
RRIRRRPPRLPRPRPRPVNHPRP	True
RRIRKRPPRLPRPRPRPCCFPRP	True
RRIRNRPPRLPRPRPRPLGNPRP	False

* * *

# System: Escherichia coli TOP10
# Method summary: shrunken log2 fold change of peptide-encoding DNA abundance (4.5 h post-induction vs induction); higher = less antimicrobial activity (less host growth inhibition)
# Recorded conditions: time post-induction: 4.5 h; library: site-saturation at positions 5, 18, 19, 20
Dear colleague, classification is by shrunken log2 fold change, with ranges listed here: low class (below -0.09), middle class (-0.09 to below 0.07), high class (0.07 or more)

Input sequence	Assigned label
RRIRLRPPRLPRPRPRPLRCPRP	middle class
RRIRKRPPRLPRPRPRPVDDPRP	high class
RRIRQRPPRLPRPRPRPCAAPRP	high class
RRIRRRPPRLPRPRPRPWSFPRP	middle class
RRIRRRPPRLPRPRPRPIAHPRP	middle class
RRIRYRPPRLPRPRPRPLAGPRP	middle class
RRIRVRPPRLPRPRPRPKHVPRP	low class
RRIRDRPPRLPRPRPRPLKLPRP	middle class
RRIRQRPPRLPRPRPRPPVVPRP	high class
RRIRWRPPRLPRPRPRPKFKPRP	middle class
RRIRNRPPRLPRPRPRPIKTPRP	middle class
RRIRPRPPRLPRPRPRPLINPRP	low class
RRIRYRPPRLPRPRPRPNRDPRP	low class
RRIRYRPPRLPRPRPRPRIVPRP	low class
RRIRDRPPRLPRPRPRPGKCPRP	low class
RRIRMRPPRLPRPRPRPDWIPRP	middle class
RRIRIRPPRLPRPRPRPNNYPRP	low class
RRIRKRPPRLPRPRPRPGACPRP	high class
RRIRARPPRLPRPRPRPWSQPRP	high class
RRIRYRPPRLPRPRPRPQRMPRP	low class
RRIRTRPPRLPRPRPRPHYCPRP	low class
RRIRNRPPRLPRPRPRPDGAPRP	high class
RRIRWRPPRLPRPRPRPTWKPRP	high class
RRIRSRPPRLPRPRPRPLIPPRP	low class
RRIRIRPPRLPRPRPRPLPKPRP	high class
RRIRDRPPRLPRPRPRPYNSPRP	low class
RRIRERPPRLPRPRPRPYYKPRP	low class
RRIRIRPPRLPRPRPRPKLNPRP	middle class
RRIRYRPPRLPRPRPRPNSDPRP	low class
RRIRLRPPRLPRPRPRPLKIPRP	low class
RRIRIRPPRLPRPRPRPPWDPRP	high class
RRIRKRPPRLPRPRPRPTCYPRP	middle class
RRIRMRPPRLPRPRPRPHCFPRP	middle class
RRIRVRPPRLPRPRPRPFSEPRP	low class
RRIRMRPPRLPRPRPRPSESPRP	middle class
RRIRGRPPRLPRPRPRPHCLPRP	high class
RRIRHRPPRLPRPRPRPWGWPRP	high class
RRIRNRPPRLPRPRPRPRWRPRP	high class
RRIRHRPPRLPRPRPRPWATPRP	middle class
RRIRPRPPRLPRPRPRPHAKPRP	high class
RRIRHRPPRLPRPRPRPLPFPRP	low class
RRIRVRPPRLPRPRPRPGVQPRP	middle class
RRIRCRPPRLPRPRPRPLSAPRP	middle class
RRIRPRPPRLPRPRPRPENCPRP	high class
RRIRKRPPRLPRPRPRPPRLPRP	high class
RRIRNRPPRLPRPRPRPVEQPRP	middle class
RRIRIRPPRLPRPRPRPCWTPRP	low class
RRIRGRPPRLPRPRPRPHTSPRP	middle class
RRIRMRPPRLPRPRPRPPAYPRP	high class
RRIRRRPPRLPRPRPRPFTYPRP	low class
RRIRPRPPRLPRPRPRPRDYPRP	high class
RRIRLRPPRLPRPRPRPRRQPRP	high class
RRIRNRPPRLPRPRPRPKYLPRP	middle class
RRIRIRPPRLPRPRPRPRHKPRP	low class
RRIRDRPPRLPRPRPRPHIWPRP	middle class

* * *

# Test system: Escherichia coli TOP10
# Method summary: shrunken log2 fold change of peptide-encoding DNA abundance (4.5 h post-induction vs induction); higher = less antimicrobial activity (less host growth inhibition)
# Recorded conditions: time post-induction: 4.5 h; library: site-saturation at positions 5, 18, 19, 20

Input sequence	shrunken log2 fold change
RRIRPRPPRLPRPRPRPHVSPRP	0.00841
RRIRPRPPRLPRPRPRPFQHPRP	-0.00804
RRIRHRPPRLPRPRPRPTNNPRP	-0.467
RRIRRRPPRLPRPRPRPDCYPRP	-0.236

* * *

# System: Escherichia coli TOP10;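 further: peptides expressed intracellularly from a pBAD plasmid library in pooled LB shake-flask culture, induced with 0.3% L-arabinose, DNA abundance read by NGS, three biological replicates, DESeq2 with apeglm shrinkage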
# Method summary: shrunken log2 fold change of peptide-encoding DNA abundance (4.5 h post-induction vs induction); higher = less antimicrobial activity (less host growth inhibition)
# Recorded conditions: time post-induction: 4.5 h; library: site-saturation at positions 5, 18, 19, 20
// reported shrunken log2 fold change for each item listed
Readout type: shrunken log2 fold change

Input sequence	Target of assay	Recorded number
RRIRHRPPRLPRPRPRPGMQPRP	Escherichia coli TOP10	0.0824
RRIRYRPPRLPRPRPRPYEKPRP	Escherichia coli TOP10	-0.117
RRIRNRPPRLPRPRPRPPMQPRP	Escherichia coli TOP10	0.0237
RRIRNRPPRLPRPRPRPHMWPRP	Escherichia coli TOP10	-0.0758
RRIRFRPPRLPRPRPRPTSDPRP	Escherichia coli TOP10	-0.206
RRIRDRPPRLPRPRPRPRLLPRP	Escherichia coli TOP10	0.146
RRIRHRPPRLPRPRPRPWNWPRP	Escherichia coli TOP10	-0.0135
RRIRGRPPRLPRPRPRPGANPRP	Escherichia coli TOP10	0.874
RRIRYRPPRLPRPRPRPTFKPRP	Escherichia coli TOP10	-0.445
RRIRTRPPRLPRPRPRPWDDPRP	Escherichia coli TOP10	0.033
RRIRVRPPRLPRPRPRPYYQPRP	Escherichia coli TOP10	-0.245
RRIRSRPPRLPRPRPRPMCMPRP	Escherichia coli TOP10	-0.000628
RRIRGRPPRLPRPRPRPNAMPRP	Escherichia coli TOP10	0.988
RRIRCRPPRLPRPRPRPWEFPRP	Escherichia coli TOP10	0.0363
RRIRERPPRLPRPRPRPHVPPRP	Escherichia coli TOP10	-0.0791
RRIRWRPPRLPRPRPRPPWNPRP	Escherichia coli TOP10	0.279
RRIRARPPRLPRPRPRPQPRPRP	Escherichia coli TOP10	0.721
RRIRERPPRLPRPRPRPQAHPRP	Escherichia coli TOP10	-0.0188
RRIRRRPPRLPRPRPRPRCPPRP	Escherichia coli TOP10	0.605
RRIRSRPPRLPRPRPRPWPLPRP	Escherichia coli TOP10	-0.293
RRIRQRPPRLPRPRPRPASTPRP	Escherichia coli TOP10	-0.0855
RRIRQRPPRLPRPRPRPLGFPRP	Escherichia coli TOP10	0.0916
RRIRYRPPRLPRPRPRPQQLPRP	Escherichia coli TOP10	-0.181
RRIRCRPPRLPRPRPRPYPSPRP	Escherichia coli TOP10	-0.0149
RRIRYRPPRLPRPRPRPHGFPRP	Escherichia coli TOP10	0.0238
RRIRARPPRLPRPRPRPVNWPRP	Escherichia coli TOP10	0.459
RRIRGRPPRLPRPRPRPNQCPRP	Escherichia coli TOP10	0.0163
RRIRDRPPRLPRPRPRPYGSPRP	Escherichia coli TOP10	-0.0409
RRIRKRPPRLPRPRPRPPMMPRP	Escherichia coli TOP10	0.587
RRIRKRPPRLPRPRPRPIKCPRP	Escherichia coli TOP10	-0.29
RRIRRRPPRLPRPRPRPGLRPRP	Escherichia coli TOP10	0.338
RRIRIRPPRLPRPRPRPRTFPRP	Escherichia coli TOP10	-0.143
RRIRQRPPRLPRPRPRPIWCPRP	Escherichia coli TOP10	-0.0171
RRIRDRPPRLPRPRPRPHDIPRP	Escherichia coli TOP10	0.0555
RRIRGRPPRLPRPRPRPVEWPRP	Escherichia coli TOP10	0.0602
RRIRGRPPRLPRPRPRPHYGPRP	Escherichia coli TOP10	-0.627
RRIRNRPPRLPRPRPRPEAYPRP	Escherichia coli TOP10	0.0274
RRIRGRPPRLPRPRPRPWNLPRP	Escherichia coli TOP10	0.000264
RRIRMRPPRLPRPRPRPHRIPRP	Escherichia coli TOP10	0.0956
RRIRGRPPRLPRPRPRPPNLPRP	Escherichia coli TOP10	0.463
RRIRRRPPRLPRPRPRPPGTPRP	Escherichia coli TOP10	0.705
RRIRQRPPRLPRPRPRPGQGPRP	Escherichia coli TOP10	-0.000829
RRIRERPPRLPRPRPRPHFEPRP	Escherichia coli TOP10	-0.211
RRIRDRPPRLPRPRPRPFKRPRP	Escherichia coli TOP10	-0.00875
RRIRVRPPRLPRPRPRPVYNPRP	Escherichia coli TOP10	-0.738
RRIRPRPPRLPRPRPRPCKYPRP	Escherichia coli TOP10	-0.499
RRIRNRPPRLPRPRPRPRDWPRP	Escherichia coli TOP10	0.0384
